biological target: human HDAC1 enzyme (Homo sapiens, UniProt Q13547); construct: purchased BPS Bioscience; test: Human HDAC1 enzyme assay (Class I HDACs); type: biochemical; settings: Table 9; recombinant human HDAC; read-out: IC50, Class I HDAC1
Sequence (Q13547 whole entry): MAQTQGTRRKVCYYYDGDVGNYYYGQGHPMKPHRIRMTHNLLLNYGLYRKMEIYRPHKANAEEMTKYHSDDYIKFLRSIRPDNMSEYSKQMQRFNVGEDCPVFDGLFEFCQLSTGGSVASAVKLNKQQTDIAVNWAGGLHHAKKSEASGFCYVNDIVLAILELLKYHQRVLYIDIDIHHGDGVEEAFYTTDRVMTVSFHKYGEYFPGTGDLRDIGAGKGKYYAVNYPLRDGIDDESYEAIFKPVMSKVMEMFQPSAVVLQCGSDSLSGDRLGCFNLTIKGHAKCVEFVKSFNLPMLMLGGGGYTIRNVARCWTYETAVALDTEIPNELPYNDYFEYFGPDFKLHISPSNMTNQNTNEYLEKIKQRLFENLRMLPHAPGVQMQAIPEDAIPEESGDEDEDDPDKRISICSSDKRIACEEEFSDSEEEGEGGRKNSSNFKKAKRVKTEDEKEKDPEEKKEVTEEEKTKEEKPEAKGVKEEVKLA
# IC50 listing for each entry below
ASSAY READOUT: IC50

>>> df
                                   molecule  assay_value
0  O=C(NO)c1ccc(CN2C(=O)c3cccc(F)c3C2=O)cc1-c1ccccc1 [Example 55]        27 µM
1  O=C(NO)c1ccc(CN2C(=O)c3ccccc3S2(=O)=O)cc1-c1ccccc1 [Example 56]       4.9 µM
2  O=C(NO)c1ccc(CN2C(=O)c3ccccc3C2=O)cc1-c1ccccc1 [Example 36]        32 µM
